Recorded pKd, one value per entry.
- Target of assay: T1, recombinant human DLL4 (C-terminally His-tagged extracellular domain, R&D Systems) (human, UniProt Q9NR61 25-522, biotinylated in the competition ELISA)
- T1 construct: also called rhDLL4; hDLL4
- T1 sequence (Q9NR61 25-522): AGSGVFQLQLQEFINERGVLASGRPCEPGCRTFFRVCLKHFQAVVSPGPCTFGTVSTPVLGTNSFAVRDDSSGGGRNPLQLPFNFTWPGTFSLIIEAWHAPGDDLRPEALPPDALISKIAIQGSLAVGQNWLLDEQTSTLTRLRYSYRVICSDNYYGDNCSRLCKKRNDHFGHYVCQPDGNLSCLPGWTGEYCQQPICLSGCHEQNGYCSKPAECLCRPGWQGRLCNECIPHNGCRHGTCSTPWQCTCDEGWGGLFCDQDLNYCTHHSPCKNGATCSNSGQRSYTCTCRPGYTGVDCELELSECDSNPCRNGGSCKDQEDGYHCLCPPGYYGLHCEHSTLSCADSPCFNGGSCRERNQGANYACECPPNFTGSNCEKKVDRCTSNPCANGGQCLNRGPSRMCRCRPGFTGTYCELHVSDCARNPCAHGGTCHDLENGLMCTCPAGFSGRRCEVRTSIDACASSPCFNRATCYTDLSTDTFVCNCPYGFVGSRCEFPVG
- Assay text: SPR (Biacore), rhDLL4
pKd: −log10 of the molar value.
Parameter measured: pKd

- Binder: "DLLBII133A09 (VHH, not shown: small tags and cut ends) VHH: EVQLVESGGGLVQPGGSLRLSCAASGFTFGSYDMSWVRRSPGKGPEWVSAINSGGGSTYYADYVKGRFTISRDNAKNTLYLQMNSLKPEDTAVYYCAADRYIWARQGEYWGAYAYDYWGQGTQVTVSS"
  Parameter measured: "pKd"
  Test value: 8.68
- Binder: "DLLBII129H07 (VHH, not shown: small tags and cut ends) VHH: EVQLVESGGGLVQAGGSLRLSCAASGRTFSSYAMAWYRQAPGKEREYVAAIRWSGGTAYYADSVQGRFTISRDNAKNTVYLQMNSLKPEDTAVYYCANRAPDTRLEPYEYDYWGQGTQVTVSS"
  Parameter measured: "pKd"
  Test value: 9.30
- Binder: "DLLBII115A05 (VHH, not shown: small tags and cut ends, parent VHH; also called 115A05 (wt); 115A5) VHH: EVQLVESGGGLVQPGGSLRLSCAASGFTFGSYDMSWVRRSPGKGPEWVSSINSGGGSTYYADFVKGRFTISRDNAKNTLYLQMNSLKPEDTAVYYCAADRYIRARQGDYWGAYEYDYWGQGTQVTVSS"
  Parameter measured: "pKd"
  Test value: 7.80
- Binder: "DLLBII015 (VHH, not shown: small tags and cut ends) VHH: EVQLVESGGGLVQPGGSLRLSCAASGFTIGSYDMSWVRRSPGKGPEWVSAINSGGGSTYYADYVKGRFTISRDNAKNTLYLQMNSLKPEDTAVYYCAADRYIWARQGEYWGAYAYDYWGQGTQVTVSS"
  Parameter measured: "pKd"
  Test value: 9.00
- Binder: "DLLBII129B05 (VHH, not shown: small tags and cut ends) VHH: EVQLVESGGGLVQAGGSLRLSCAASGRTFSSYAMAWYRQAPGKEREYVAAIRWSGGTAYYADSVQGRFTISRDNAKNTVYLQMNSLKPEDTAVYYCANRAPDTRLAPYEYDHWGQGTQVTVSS"
  Parameter measured: "pKd"
  Test value: 9.52
- Binder: "DLLBII130B03 (VHH, not shown: small tags and cut ends) VHH: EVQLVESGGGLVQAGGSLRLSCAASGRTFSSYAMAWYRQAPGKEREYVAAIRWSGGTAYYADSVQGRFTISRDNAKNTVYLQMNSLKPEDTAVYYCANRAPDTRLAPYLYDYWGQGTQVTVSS"
  Parameter measured: "pKd"
  Test value: 9.52
- Binder: "DLLBII129D08 (VHH, not shown: small tags and cut ends) VHH: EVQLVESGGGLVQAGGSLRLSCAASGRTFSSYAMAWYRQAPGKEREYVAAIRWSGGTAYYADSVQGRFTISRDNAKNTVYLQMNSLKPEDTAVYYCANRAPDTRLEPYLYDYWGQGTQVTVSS"
  Parameter measured: "pKd"
  Test value: 9.40
- Binder: "DLLBII133G05 (VHH, not shown: small tags and cut ends) VHH: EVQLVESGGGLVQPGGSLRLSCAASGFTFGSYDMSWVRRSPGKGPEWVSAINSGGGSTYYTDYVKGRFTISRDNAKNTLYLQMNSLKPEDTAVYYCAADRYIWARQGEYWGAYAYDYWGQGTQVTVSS"
  Parameter measured: "pKd"
  Test value: 9.10
- Binder: "DLLBII129A03 (VHH, not shown: small tags and cut ends) VHH: EVQLVESGGGLVQAGGSLRLSCAASGRTFSSYAMAWFRQAPGKEREYVAAIRWSGGTAYYADSVQGRFTISRDNAKNTVYLQMNSLRPEDTAVYYCANRAPDTRLRPYLYDYWGQGTQVTVSS"
  Parameter measured: "pKd"
  Test value: 9.30
- Binder: "DLLBII130F06 (VHH, not shown: small tags and cut ends) VHH: EVQLVESGGGLVQAGGSLRLSCAASGRTFSSYAMAWYRQAPGKEREYVAAIRWSGGTAYYADSVQGRFTISRDNAKNTVYLQMNSLKPEDTAVYYCANRAPDTRLAPYEYDYWGQGTQVTVSS"
  Parameter measured: "pKd"
  Test value: 9.40
- Binder: "DLLBII129E11 (VHH, not shown: small tags and cut ends) VHH: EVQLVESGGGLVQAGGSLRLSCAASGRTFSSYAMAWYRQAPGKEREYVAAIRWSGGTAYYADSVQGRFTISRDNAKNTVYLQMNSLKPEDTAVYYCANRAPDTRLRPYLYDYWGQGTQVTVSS"
  Parameter measured: "pKd"
  Test value: 9.30
- Binder: "DLLBII101G08 (VHH, not shown: small tags and cut ends, parent VHH; also called 101G08 (wt); 101G8) VHH: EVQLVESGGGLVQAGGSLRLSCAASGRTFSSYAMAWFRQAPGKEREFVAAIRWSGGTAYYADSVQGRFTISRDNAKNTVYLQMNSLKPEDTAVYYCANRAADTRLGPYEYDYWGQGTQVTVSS"
  Parameter measured: "pKd"
  Test value: 7.32
- Binder: "DLLBII136C07 (VHH, not shown: small tags and cut ends) VHH: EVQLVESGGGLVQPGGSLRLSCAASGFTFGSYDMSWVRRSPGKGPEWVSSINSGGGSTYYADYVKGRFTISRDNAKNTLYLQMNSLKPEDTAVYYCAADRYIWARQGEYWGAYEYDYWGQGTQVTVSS"
  Parameter measured: "pKd"
  Test value: 9.22

The origin of these recorded values is patent US20140120095A1.
